assay: Selectivity index, ratio of IC50 for mouse RAW264.7 cells to MIC for methicillin-resistant Staphylococcus aureus ATCC523512; type: toxicity; settings: read-out: Selectivity Index
In this section, each of the molecules is paired with its reported selectivity ratio.

{"chemical.structure": "COc1cc(/C=C/c2ccccc2F)c(C(=O)O)c(O)c1CC=C(C)C", "selectivity ratio": 6.17}
{"chemical.structure": "COc1cc(/C=C/c2ccc(C(F)(F)F)cc2)c(C(=O)O)c(O)c1CC=C(C)C", "selectivity ratio": 12.9}
{"chemical.structure": "COc1cc(/C=C/c2cccc(F)c2)c(C(=O)O)c(O)c1CC=C(C)C", "selectivity ratio": 5.04}
